Target sequence: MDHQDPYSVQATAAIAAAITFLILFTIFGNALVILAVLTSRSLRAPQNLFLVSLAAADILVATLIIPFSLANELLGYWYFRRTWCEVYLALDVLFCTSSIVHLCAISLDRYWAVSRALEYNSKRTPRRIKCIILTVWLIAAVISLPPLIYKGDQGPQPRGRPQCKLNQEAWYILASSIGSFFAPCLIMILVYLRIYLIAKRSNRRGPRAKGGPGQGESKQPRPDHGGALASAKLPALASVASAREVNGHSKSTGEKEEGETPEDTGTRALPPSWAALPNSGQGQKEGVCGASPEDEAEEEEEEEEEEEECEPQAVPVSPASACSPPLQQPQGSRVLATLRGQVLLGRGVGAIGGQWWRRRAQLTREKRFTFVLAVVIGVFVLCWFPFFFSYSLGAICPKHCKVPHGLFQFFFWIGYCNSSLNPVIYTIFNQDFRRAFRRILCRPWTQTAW
Outcome measure: pIC50
Worth noting: pIC50 values are minus log10 of concentrations stated in mol/L.

# input compound: COc1cc(F)ccc1-c1cc(Nc2cc(CS(C)(=N)=O)ccn2)ncc1F (stereo not shown) ; wanted: its pIC50
5.93

###

test system: MEC-1; test: MTS proliferation assay; type: cell-based; settings: Homo sapiens, MEC1, 24, 48, and 72 h, read-out: proliferation IC50
Outcome measure: IC50

Recorded IC50 for COc1cc(F)ccc1-c1cc(Nc2cc(CS(C)(=N)=O)ccn2)ncc1F (stereo not shown) , please?
0.15 to 1 µM

###

target: Sigma σ1 (Homo sapiens, UniProt Q99720)
Sequence (Q99720 whole entry): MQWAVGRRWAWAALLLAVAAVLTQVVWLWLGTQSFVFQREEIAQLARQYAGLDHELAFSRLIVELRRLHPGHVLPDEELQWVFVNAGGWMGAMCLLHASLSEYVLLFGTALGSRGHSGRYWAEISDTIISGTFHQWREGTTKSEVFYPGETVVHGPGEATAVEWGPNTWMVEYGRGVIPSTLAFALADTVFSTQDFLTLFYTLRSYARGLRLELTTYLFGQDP
Outcome measure: Ki (nM)
Just the number in nM, nothing appended.

# input molecule: COc1cc(F)ccc1-c1cc(Nc2cc(CS(C)(=N)=O)ccn2)ncc1F (stereo not shown) [VIP152] ; wanted: its Ki
750

###

Biological target: α2C receptor (Homo sapiens)
Sequence (P18825 1-462): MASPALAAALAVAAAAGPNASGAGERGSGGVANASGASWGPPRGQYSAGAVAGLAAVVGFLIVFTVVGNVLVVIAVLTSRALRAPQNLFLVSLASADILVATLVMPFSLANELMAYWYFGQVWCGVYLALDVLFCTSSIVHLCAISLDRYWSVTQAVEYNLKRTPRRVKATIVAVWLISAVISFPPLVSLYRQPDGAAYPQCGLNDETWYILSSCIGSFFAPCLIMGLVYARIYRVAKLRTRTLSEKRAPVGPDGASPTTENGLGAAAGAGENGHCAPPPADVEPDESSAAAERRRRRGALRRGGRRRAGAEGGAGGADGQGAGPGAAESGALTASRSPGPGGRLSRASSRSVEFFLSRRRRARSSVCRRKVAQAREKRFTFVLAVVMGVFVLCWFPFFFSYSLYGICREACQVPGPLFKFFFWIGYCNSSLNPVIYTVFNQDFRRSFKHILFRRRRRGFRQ
Outcome measure: pIC50
# pIC50: negative log10 of molar concentration; output just the value

Entry COc1cc(F)ccc1-c1cc(Nc2cc(CS(C)(=N)=O)ccn2)ncc1F (stereo not shown) [VIP152] has what pIC50?
6.47

###

molecular target: CDK7/Cyclin H (Homo sapiens, UniProt P50613); test: HotSpot radiometric kinase assay
Sequence (P50613 whole entry): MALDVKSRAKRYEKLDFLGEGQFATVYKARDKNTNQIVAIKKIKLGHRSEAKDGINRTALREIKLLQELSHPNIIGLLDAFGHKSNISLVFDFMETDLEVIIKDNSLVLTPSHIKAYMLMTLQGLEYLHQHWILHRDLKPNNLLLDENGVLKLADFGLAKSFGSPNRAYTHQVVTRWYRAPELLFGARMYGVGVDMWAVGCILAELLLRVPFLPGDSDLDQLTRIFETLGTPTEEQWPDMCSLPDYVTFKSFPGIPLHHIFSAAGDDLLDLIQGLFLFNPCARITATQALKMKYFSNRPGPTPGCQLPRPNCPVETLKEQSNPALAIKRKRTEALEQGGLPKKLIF
Sequence (P51946 whole entry partner): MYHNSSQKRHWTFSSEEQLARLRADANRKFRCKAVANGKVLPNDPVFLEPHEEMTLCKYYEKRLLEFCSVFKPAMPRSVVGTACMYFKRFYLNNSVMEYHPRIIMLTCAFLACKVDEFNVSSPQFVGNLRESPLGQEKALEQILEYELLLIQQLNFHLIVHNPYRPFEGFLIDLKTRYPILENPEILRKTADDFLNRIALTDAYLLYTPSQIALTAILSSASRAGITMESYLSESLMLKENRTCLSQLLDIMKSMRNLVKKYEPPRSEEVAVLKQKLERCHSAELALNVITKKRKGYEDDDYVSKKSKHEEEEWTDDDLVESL
Sequence (P51948 whole entry partner): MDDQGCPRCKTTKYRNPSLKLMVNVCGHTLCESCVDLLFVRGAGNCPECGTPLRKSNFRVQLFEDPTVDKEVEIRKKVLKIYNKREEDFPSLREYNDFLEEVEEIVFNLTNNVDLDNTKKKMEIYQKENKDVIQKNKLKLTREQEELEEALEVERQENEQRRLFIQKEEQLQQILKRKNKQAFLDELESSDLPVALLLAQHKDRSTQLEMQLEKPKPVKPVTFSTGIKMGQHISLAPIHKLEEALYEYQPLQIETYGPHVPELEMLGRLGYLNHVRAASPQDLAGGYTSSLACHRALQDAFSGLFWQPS
pIC50: −log10 of the molar value.
Outcome measure: pIC50

Endpoint output: pIC50 of COc1cc(F)ccc1-c1cc(Nc2cc(CS(C)(=N)=O)ccn2)ncc1F (stereo not shown) . Value?
< 5.00

###

molecular target: Sigma σ1 (Homo sapiens, UniProt Q99720)
Outcome measure: IC50 (nM)
Value expressed in nM; do not type the unit.

Any idea what its IC50 is? The molecule is COc1cc(F)ccc1-c1cc(Nc2cc(CS(C)(=N)=O)ccn2)ncc1F (stereo not shown) [VIP152]
1780

###

Molecular target: Adrenergic α2A (Homo sapiens)
Sequence (P08913 1-465): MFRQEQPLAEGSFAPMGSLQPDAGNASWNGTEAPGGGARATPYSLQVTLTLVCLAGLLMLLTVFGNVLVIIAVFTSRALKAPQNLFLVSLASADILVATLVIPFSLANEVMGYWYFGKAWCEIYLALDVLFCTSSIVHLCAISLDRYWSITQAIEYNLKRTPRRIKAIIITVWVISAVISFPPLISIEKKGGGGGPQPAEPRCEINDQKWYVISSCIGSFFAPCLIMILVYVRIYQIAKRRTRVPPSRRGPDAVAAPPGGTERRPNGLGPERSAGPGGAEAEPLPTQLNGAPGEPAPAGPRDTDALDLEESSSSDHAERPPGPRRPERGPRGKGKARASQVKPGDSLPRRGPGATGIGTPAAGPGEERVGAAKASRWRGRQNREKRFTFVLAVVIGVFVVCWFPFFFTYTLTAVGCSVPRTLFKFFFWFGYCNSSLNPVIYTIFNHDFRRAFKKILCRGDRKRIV
Outcome measure: Ki (µM)
The reply should be a number in µM, with the unit left off.

Under Adrenergic α2A (Homo sapiens): Ki value of COc1cc(F)ccc1-c1cc(Nc2cc(CS(C)(=N)=O)ccn2)ncc1F (stereo not shown) ?
0.032

###

Target: Adrenergic α2A (Homo sapiens)
Sequence (P08913 1-465): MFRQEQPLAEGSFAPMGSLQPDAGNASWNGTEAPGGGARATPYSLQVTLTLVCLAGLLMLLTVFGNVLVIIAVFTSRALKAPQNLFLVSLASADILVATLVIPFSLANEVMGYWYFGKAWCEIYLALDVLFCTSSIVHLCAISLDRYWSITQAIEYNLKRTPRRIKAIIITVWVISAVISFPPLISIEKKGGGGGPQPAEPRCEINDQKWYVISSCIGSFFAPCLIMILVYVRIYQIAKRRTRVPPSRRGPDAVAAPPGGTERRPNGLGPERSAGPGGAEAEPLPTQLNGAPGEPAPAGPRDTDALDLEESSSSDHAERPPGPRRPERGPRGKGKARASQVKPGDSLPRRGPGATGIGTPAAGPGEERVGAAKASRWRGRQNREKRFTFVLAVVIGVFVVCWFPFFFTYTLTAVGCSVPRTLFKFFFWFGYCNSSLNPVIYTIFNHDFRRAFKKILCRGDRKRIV
Outcome measure: IC50 (nM)
Give the number; nM is assumed, so skip it.

Request - read-out IC50 | tested on Adrenergic α2A (Homo sapiens) | molecule COc1cc(F)ccc1-c1cc(Nc2cc(CS(C)(=N)=O)ccn2)ncc1F (stereo not shown)
64

###

molecular target: hERG potassium channel (Homo sapiens, UniProt Q12809); test: Eurofins Diversity Panel; format: binding; conditions: hum, Conc. 10 μM
Sequence (Q12809 whole entry): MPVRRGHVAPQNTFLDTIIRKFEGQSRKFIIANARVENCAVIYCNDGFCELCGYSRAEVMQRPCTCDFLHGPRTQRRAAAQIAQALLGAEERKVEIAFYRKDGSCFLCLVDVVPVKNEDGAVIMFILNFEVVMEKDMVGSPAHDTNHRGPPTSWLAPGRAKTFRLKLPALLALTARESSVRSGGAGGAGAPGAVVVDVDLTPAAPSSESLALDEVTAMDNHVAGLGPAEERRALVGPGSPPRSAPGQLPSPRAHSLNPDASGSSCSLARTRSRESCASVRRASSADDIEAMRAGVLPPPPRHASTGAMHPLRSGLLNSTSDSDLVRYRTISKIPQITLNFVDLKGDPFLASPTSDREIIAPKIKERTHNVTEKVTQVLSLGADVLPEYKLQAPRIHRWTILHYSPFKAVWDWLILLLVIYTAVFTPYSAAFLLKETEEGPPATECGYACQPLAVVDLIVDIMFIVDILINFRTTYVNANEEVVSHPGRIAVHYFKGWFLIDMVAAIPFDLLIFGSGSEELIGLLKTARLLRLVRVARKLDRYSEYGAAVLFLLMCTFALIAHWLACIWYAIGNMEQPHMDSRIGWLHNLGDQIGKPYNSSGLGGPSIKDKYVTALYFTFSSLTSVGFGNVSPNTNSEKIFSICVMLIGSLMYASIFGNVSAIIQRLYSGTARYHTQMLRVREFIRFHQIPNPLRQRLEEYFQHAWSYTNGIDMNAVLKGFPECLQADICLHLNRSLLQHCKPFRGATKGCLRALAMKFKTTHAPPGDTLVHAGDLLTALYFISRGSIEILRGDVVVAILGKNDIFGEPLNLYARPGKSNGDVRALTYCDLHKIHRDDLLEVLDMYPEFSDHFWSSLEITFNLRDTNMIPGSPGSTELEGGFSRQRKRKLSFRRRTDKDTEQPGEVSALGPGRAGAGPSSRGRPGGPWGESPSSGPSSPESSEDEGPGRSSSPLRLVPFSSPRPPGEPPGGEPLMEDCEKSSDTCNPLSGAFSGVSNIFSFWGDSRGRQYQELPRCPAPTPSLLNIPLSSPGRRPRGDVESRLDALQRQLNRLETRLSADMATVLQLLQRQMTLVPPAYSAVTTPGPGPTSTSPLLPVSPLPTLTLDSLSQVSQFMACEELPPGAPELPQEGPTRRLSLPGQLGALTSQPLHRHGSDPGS
Outcome measure: inhibition at 10 µM
Hi, when you answer, please include the unit after the number. Thanks!

What inhibition at 10 µM value was documented for this compound, COc1cc(F)ccc1-c1cc(Nc2cc(CS(C)(=N)=O)ccn2)ncc1F (stereo not shown) [VIP152] ?
26%
